Read-out: Cytochrome P450 3A7 (Homo sapiens) (UniProt P24462)
Sequence (P24462 whole entry, looked up): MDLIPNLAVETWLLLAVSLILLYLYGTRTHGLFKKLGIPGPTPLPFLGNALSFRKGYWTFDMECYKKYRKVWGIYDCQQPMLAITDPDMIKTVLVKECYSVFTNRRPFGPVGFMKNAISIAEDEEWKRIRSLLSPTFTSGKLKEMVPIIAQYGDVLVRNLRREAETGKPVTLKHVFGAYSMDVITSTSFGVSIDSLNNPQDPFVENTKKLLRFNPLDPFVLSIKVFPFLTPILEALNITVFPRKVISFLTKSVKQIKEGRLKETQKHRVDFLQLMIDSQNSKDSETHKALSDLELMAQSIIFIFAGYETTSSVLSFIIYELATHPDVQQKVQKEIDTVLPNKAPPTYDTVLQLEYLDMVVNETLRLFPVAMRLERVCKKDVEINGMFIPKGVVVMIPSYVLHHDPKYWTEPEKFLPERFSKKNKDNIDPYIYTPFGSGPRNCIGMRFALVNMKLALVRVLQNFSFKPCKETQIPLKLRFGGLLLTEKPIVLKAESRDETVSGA
assay.details: LTEA_HepaRG_CYP3A7: Life Technologies and Expression Analysis (LTEA) Assay for CYP3A7 using HepaRG (AID 2283492)
experimental.conditions: mRNA level, 48 h; actives raise or lower the signal
Activity calls are given as the source filed them. The calls were made as follows: active = hit-call score of the fitted dose curve at least 0.9, where 1 is the maximum; inactive = score below 0.9.
Your response should consist of one outcome taken from y = active, n = inactive

Just curious, what result did `OCCOc1ccccc1` get here?
n

Just curious, what result did CC(C)(C)C(O)/C(=C\c1ccc(Cl)cc1Cl)n1cncn1 (configuration not stated) get here?
n

Just curious, what result did `CCCN(CCOc1c(Cl)cc(Cl)cc1Cl)C(=O)n1ccnc1` get here?
y

Just curious, what result did `CNC(=O)Oc1ccccc1OC(C)C` get here?
y

Just curious, what result did `CNC(=O)Oc1cccc(N=CN(C)C)c1` get here?
n

Just curious, what result did `O=C(Nc1ccccc1)Nc1cnns1` get here?
y

Just curious, what result did `Cc1[nH]c(=O)n(C(C)(C)C)c(=O)c1Cl` get here?
n

Just curious, what result did O=C(NC(=O)c1c(F)cccc1F)Nc1ccc(OC(F)(F)C(F)OC(F)(F)F)c(Cl)c1 (configuration not stated) get here?
n

Just curious, what result did `O=C1c2ccccc2C(=O)N1SC(Cl)(Cl)Cl` get here?
n

Just curious, what result did `O=[N+]([O-])/N=C1\NCCN1Cc1ccc(Cl)nc1` get here?
n

Just curious, what result did `CCCN(CCC)c1c([N+](=O)[O-])cc(C(F)(F)F)cc1[N+](=O)[O-]` get here?
n

Just curious, what result did `Oc1cc(Cl)ccc1Oc1ccc(Cl)cc1Cl` get here?
n

====

Read-out: Tumor necrosis factor receptor 1 (TNFRSF1A), TNFRSF1A (gene 7132)
assay.details: LTEA_HepaRG_TNFRSF1A: Life Technologies and Expression Analysis (LTEA) Assay for Tumor necrosis factor receptor 1 (TNFRSF1A) using HepaRG (AID 2283535)
experimental.conditions: mRNA level, 48 h; actives raise or lower the signal
Calls of active or inactive are those of the source. The calls were made as follows: active = hit-call score of the fitted dose curve at least 0.9, where 1 is the maximum; inactive = score below 0.9.
value.type: outcome

1) O=C1c2ccccc2C(=O)N1SC(Cl)(Cl)Cl :: inactive
2) Clc1ccccc1-c1nnc(-c2ccccc2Cl)nn1 :: inactive
3) C#CCN1C(=O)COc2cc(F)c(N3C(=O)C4=C(CCCC4)C3=O)cc21 :: inactive

====

test.system: human CYP2A6, CYP2A6 (gene 1548) (UniProt P11509)
Sequence (P11509 whole entry, looked up): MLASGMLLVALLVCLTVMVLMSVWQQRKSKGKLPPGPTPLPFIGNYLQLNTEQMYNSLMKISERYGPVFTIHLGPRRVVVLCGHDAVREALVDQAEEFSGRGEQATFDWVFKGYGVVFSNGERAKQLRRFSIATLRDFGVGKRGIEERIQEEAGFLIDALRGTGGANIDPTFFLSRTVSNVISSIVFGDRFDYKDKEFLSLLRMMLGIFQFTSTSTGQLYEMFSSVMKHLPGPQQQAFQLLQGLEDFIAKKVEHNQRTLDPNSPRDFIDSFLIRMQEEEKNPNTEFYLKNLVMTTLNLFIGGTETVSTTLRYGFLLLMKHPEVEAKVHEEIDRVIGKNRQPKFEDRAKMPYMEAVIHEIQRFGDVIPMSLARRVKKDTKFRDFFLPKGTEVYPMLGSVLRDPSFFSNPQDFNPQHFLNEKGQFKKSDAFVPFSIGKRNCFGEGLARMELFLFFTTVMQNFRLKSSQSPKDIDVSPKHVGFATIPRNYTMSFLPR
assay.details: NVS_ADME_hCYP2A6: NovaScreen (NVS) CYP450-related Enzyme Activity (ADME) Assay for human CYP2A6 (AID 2283099)
Records with an inconclusive call do not appear. Calls of active or inactive are those of the source. The calls were made as follows: active = hit-call score of the fitted dose curve at least 0.9, where 1 is the maximum; inconclusive = response in the unintended direction; inactive = score below 0.9.
Your response should consist of one outcome taken from True (active), False (inactive)

Just curious, what result did CC(C)(C)C(O)C(Oc1ccc(Cl)cc1)n1cncn1 (stereo not given) get here?
False

Just curious, what result did `N#Cc1c(Cl)c(Cl)c(Cl)c(C#N)c1Cl` get here?
False

Just curious, what result did `CNC(=O)CSP(=S)(OC)OC` get here?
True

Just curious, what result did `COP(=S)(OC)Oc1ccc([N+](=O)[O-])cc1` get here?
True

Just curious, what result did `CN1CSC(=S)N(C)C1` get here?
False

====

Read-out: Keratin 19 (KRT19), KRT19 (gene 3880)
assay.details: LTEA_HepaRG_KRT19: Life Technologies and Expression Analysis (LTEA) Assay for Keratin 19 (KRT19) using HepaRG (AID 2283512)
experimental.conditions: mRNA level, 48 h; actives raise or lower the signal
Activity calls are given as the source filed them. How the source made its calls: active means hit-call score of the fitted dose curve at least 0.9, where 1 is the maximum; inactive means score below 0.9.
Your response should consist of one outcome taken from TRUE for active, FALSE for inactive

Just curious, what result did `C#CCN1C(=O)COc2cc(F)c(N3C(=O)C4=C(CCCC4)C3=O)cc21` get here?
FALSE

Just curious, what result did CCC(C)Nc1c([N+](=O)[O-])cc(C(C)(C)C)cc1[N+](=O)[O-] (stereo not drawn) get here?
FALSE

Just curious, what result did `CCN(CC)C(=O)SCc1ccc(Cl)cc1` get here?
FALSE

Just curious, what result did `O=[N+]([O-])/N=C1\NCCN1Cc1ccc(Cl)nc1` get here?
FALSE

Just curious, what result did `CN1CSC(=S)N(C)C1` get here?
FALSE

Just curious, what result did CC[C@H](C)[C@H]1O[C@]2(C=C[C@@H]1C)C[C@@H]1C[C@@H](C/C=C(\C)[C@@H](O[C@H]3C[C@H](OC)[C@@H](O[C@H]4C[C@H](OC)[C@@H](O)[C@H](C)O4)[C@H](C)O3)[C@@H](C)/C=C/C=C3\CO[C@@H]4[C@H](O)C(C)=C[C@@H](C(=O)O1)[C@]34O)O2 (tested in a mixture with another compound) get here?
TRUE

Just curious, what result did `CC(C)N(C(=O)COc1nnc(C(F)(F)F)s1)c1ccc(F)cc1` get here?
FALSE

Just curious, what result did CC1(c2ccc(Oc3ccccc3)cc2)OC(=O)N(Nc2ccccc2)C1=O (stereo not drawn) get here?
TRUE

====

Read-out: Human Leukocyte Antigen - DR isotype (HLADR), HLA-DRA (gene 3122)
assay.details: BSK_CASM3C_HLADR: BioMAP Diversity Plus: CASM3C Assay for Human Leukocyte Antigen - DR isotype (HLADR) Biomarker Activity (AID 2283043);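 also: cell-surface HLA-DR protein level quantified by ELISA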
experimental.conditions: primary human coronary artery smooth muscle cells; actives raise or lower the signal
Calls of active or inactive are those of the source. Rule for the calls: active = hit-call score of the fitted dose curve at least 0.9, where 1 is the maximum; inactive = score below 0.9.
Your response should consist of one outcome taken from y = active, n = inactive

Just curious, what result did `[2H]C1([2H])[n+]2ccccc2-c2cccc[n+]2C1([2H])[2H]` get here?
n

Just curious, what result did `O=C(Nc1ccccc1)Nc1cnns1` get here?
n

Just curious, what result did CCC(C)(NC(=O)c1cc(Cl)c(C)c(Cl)c1)C(=O)CCl (configuration not stated) get here?
y

Just curious, what result did `Cc1[nH]c(=O)n(C(C)(C)C)c(=O)c1Cl` get here?
n

Just curious, what result did `CN1CSC(=S)N(C)C1` get here?
n

Just curious, what result did `CNC(=O)Oc1cccc(N=CN(C)C)c1` get here?
n

Just curious, what result did `C#CCN1C(=O)COc2cc(F)c(N3C(=O)C4=C(CCCC4)C3=O)cc21` get here?
n

Just curious, what result did CC1(c2ccc(Oc3ccccc3)cc2)OC(=O)N(Nc2ccccc2)C1=O (configuration not stated) get here?
n

Just curious, what result did CC1(C)C(C=C(Cl)Cl)C1C(=O)OC(C#N)c1ccc(F)c(Oc2ccccc2)c1 (configuration not stated) get here?
n

Just curious, what result did CC(C)(C)C(O)/C(=C\c1ccc(Cl)cc1Cl)n1cncn1 (configuration not stated) get here?
n

Just curious, what result did `CCCN(CCOc1c(Cl)cc(Cl)cc1Cl)C(=O)n1ccnc1` get here?
n

Just curious, what result did `O=C(O)COc1ccc(Cl)cc1Cl` get here?
n

====

assay.details: CCTE_Shafer_MEA_acute_network_burst_percentage: CCTE's Neural Acute Assay for Percentage of Network Bursts, Shafer Lab (AID 2284022);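 also: curves fitted for loss so actives lower network burst percentage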;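 as to outcome: rat primary cortical neuron networks on multiwell MEA recorded 40 min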
The source made the active and inactive calls. Rule for the calls: active = hit-call score of the fitted dose curve at least 0.9, where 1 is the maximum; inactive = score below 0.9.
Your response should consist of one outcome taken from t (active), f (inactive)

Just curious, what result did `COP(=S)(OC)Oc1ccc(SC)c(C)c1` get here?
f

Just curious, what result did `CCCN(CCOc1c(Cl)cc(Cl)cc1Cl)C(=O)n1ccnc1` get here?
f

Just curious, what result did `CNC(=O)/C=C(\C)OP(=O)(OC)OC` get here?
f

Just curious, what result did `Oc1cc(Cl)ccc1Oc1ccc(Cl)cc1Cl` get here?
t

Just curious, what result did `Oc1ccc(Cl)cc1Cc1ccccc1` get here?
t

Just curious, what result did `CNC(=O)CSP(=S)(OC)OC` get here?
f

Just curious, what result did `CCC(C)(C)C(=O)OC1=C(c2ccc(Cl)cc2Cl)C(=O)OC12CCCCC2` get here?
f

Just curious, what result did `C[C@H]1[C@H](c2ccc(Cl)cc2)SC(=O)N1C(=O)NC1CCCCC1` get here?
f

Just curious, what result did CC[C@H](C)[C@H]1O[C@]2(C=C[C@@H]1C)C[C@@H]1C[C@@H](C/C=C(\C)[C@@H](O[C@H]3C[C@H](OC)[C@@H](O[C@H]4C[C@H](OC)[C@@H](O)[C@H](C)O4)[C@H](C)O3)[C@@H](C)/C=C/C=C3\CO[C@@H]4[C@H](O)C(C)=C[C@@H](C(=O)O1)[C@]34O)O2 (tested in a mixture with another compound) get here?
f

Just curious, what result did `O=C1c2ccccc2C(=O)N1SC(Cl)(Cl)Cl` get here?
t

Just curious, what result did `O=[N+]([O-])/N=C1\NCCN1Cc1ccc(Cl)nc1` get here?
f

Just curious, what result did CCC(C)Nc1c([N+](=O)[O-])cc(C(C)(C)C)cc1[N+](=O)[O-] (configuration not stated) get here?
f

====

Read-out: Apolipoprotein A-V (APOA5) gene, APOA5 (gene 116519)
assay.details: LTEA_HepaRG_APOA5: Life Technologies and Expression Analysis (LTEA) Assay for Apolipoprotein A-V (APOA5) gene using HepaRG (AID 2283474)
experimental.conditions: mRNA level, 48 h; actives raise or lower the signal
Method: LTEA_HepaRG is a cell based, multiplexed-readout assay that uses HepaRG, a human liver cell line, with measurements taken at 48 hours after chemical dosing on a 96-well plate.LTEA_HepaRG_APOA5 is one of 102 assay component(s) measured in the LTEA HepaRG cell culture assay. It is a marker of Steatosis.Data from the assay component LTEA_HepaRG_APOA5 was analyzed into 1 endpoint. […]
Active and inactive are the calls of the source. Rule for the calls: active = hit-call score of the fitted dose curve at least 0.9, where 1 is the maximum; inactive = score below 0.9.
value.type: AC50

For orientation, consider the following solved cases.
1. COP(=O)(OC)OC=C(Cl)Cl :: inactive
2. COc1nn(CSP(=S)(OC)OC)c(=O)s1 :: inactive
3. C[C@H]1[C@H](c2ccc(Cl)cc2)SC(=O)N1C(=O)NC1CCCCC1 :: 36.8 µM (active)
4. CN1CSC(=S)N(C)C1 :: inactive

Look at this compound and give its reported AC50. CCOC1Oc2ccc(OS(C)(=O)=O)cc2C1(C)C (stereo not drawn)
77 µM (active)

Look at this compound and give its reported AC50. ClC1C(Cl)C(Cl)C(Cl)C(Cl)C1Cl (stereo not drawn)
inactive

Look at this compound and give its reported AC50. `CCC(C)(C)C(=O)OC1=C(c2ccc(Cl)cc2Cl)C(=O)OC12CCCCC2`
50 µM (active)

Look at this compound and give its reported AC50. `CCCN(CCOc1c(Cl)cc(Cl)cc1Cl)C(=O)n1ccnc1`
39 µM (active)

Look at this compound and give its reported AC50. `CCCN(CCC)c1c([N+](=O)[O-])cc(C(F)(F)F)cc1[N+](=O)[O-]`
inactive

Look at this compound and give its reported AC50. `O=C(O)C(F)(F)C(F)(F)C(F)(F)C(F)(F)C(F)(F)C(F)(F)C(F)(F)F`
inactive
